- System: 186277-243-T-J2-PDC complex spheroid viability
- test: Anticancer human tumor 186277-243-T-J2-PDC patient-derived colon adenocarcinoma cell line growth inhibition [GQUAD]
- condition_parameters: second compound 0.316 µM; first compound 0.0999 µM; stronger effect = lower value
Mark Criterion met only when viability, T/C stays strictly below 60%. Values equal to the cut-off are Criterion not met.

See these solved cases before continuing.
compound	label_value
CCc1c2c(nc3ccc(O)cc13)-c1cc3c(c(=O)n1C2)COC(=O)[C@]3(O)CC + Cc1cnc(CNC(=O)c2c(=O)c3ccc(N4CCCN(C)CC4)nc3n3c2sc2ccccc23)cn1	Criterion met
CCc1c2c(nc3ccc(O)cc13)-c1cc3c(c(=O)n1C2)COC(=O)[C@]3(O)CC + CN(C)c1ccc(Nc2c3ccc(NC(=O)CCN4CCCC4)cc3nc3cc(NC(=O)CCN4CCCC4)ccc23)cc1	Criterion met
Cc1[nH]c2ccccc2c1CCNCc1ccc(/C=C/C(=O)NO)cc1 + Cc1cnc(CNC(=O)c2c(=O)c3ccc(N4CCCN(C)CC4)nc3n3c2sc2ccccc23)cn1	Criterion met
Cn1ncnc1[C@H]1c2n[nH]c(=O)c3cc(F)cc(c23)N[C@@H]1c1ccc(F)cc1 + Cc1[nH]c2ccc(F)cc2c1-c1nc2c3cccnc3c3ncccc3c2[nH]1	Criterion not met

Now look at this entry.
**Query** Please check: viability, T/C for CCc1c2c(nc3ccc(O)cc13)-c1cc3c(c(=O)n1C2)COC(=O)[C@]3(O)CC + Cc1[nH]c2ccc(F)cc2c1-c1nc2c3cccnc3c3ncccc3c2[nH]1 , strictly under 60% or not?
**Result** Criterion met

* * *

- Test system: 186277-243-T-J2-PDC complex spheroid viability
- test: Anticancer human tumor 186277-243-T-J2-PDC cell line growth inhibition [GQUAD];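 further: spheroids exposed to drugs for 7 days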
- condition_parameters: curve of first compound; second compound 0.1 µM
- Text: DNA G-quadruplex Stabilizer Agents in Combinations in Complex Spheroids A high-throughput screen of multi-cell type tumor spheroids was designed to identify active combinations of DNA G-quadruplex stabilizer agents and targeted small molecules. […] Compounds. […] If the clinical Cmax for an agent had not been determined, the highest concentration tested was 10 microM. […]
Entries and their measured pIC50 follow.
// pIC50: -log10(molar conc.)

Example results:
compound	pIC50
O=C(c1cc(Cc2n[nH]c(=O)c3ccccc23)ccc1F)N1CCN(C(=O)C2CC2)CC1 + Cc1cnc(CNC(=O)c2c(=O)c3ccc(N4CCCN(C)CC4)nc3n3c2sc2ccccc23)cn1	5.30
CC1COCCN1c1cc(C2(O)CC3CCC(C2)O3)c2cnn(-c3ccn[nH]3)c2n1 (stereo not given) + CN(C)c1ccc(Nc2c3ccc(NC(=O)CCN4CCCC4)cc3nc3cc(NC(=O)CCN4CCCC4)ccc23)cc1	7.48
CCc1c2c(nc3ccc(O)cc13)-c1cc3c(c(=O)n1C2)COC(=O)[C@]3(O)CC + CN(C)c1ccc(Nc2c3ccc(NC(=O)CCN4CCCC4)cc3nc3cc(NC(=O)CCN4CCCC4)ccc23)cc1	8.20
CCc1c2c(nc3ccc(O)cc13)-c1cc3c(c(=O)n1C2)COC(=O)[C@]3(O)CC + Cc1[nH]c2ccc(F)cc2c1-c1nc2c3cccnc3c3ncccc3c2[nH]1	7.88
COc1cccc2c1C(=O)c1c(O)c3c(c(O)c1C2=O)CC(O)(C(=O)CO)CC3OC1CC(N)C(O)C(C)O1 (stereo not given) + Cc1[nH]c2ccc(F)cc2c1-c1nc2c3cccnc3c3ncccc3c2[nH]1	6.29

For reference, reported pIC50 for C=CCn1c(=O)c2cnc(Nc3ccc(N4CCN(C)CC4)cc3)nc2n1-c1cccc(C(C)(C)O)n1 + Cc1[nH]c2ccc(F)cc2c1-c1nc2c3cccnc3c3ncccc3c2[nH]1 stands at 6.74

For reference, reported pIC50 for COc1cccc2c1C(=O)c1c(O)c3c(c(O)c1C2=O)CC(O)(C(=O)CO)CC3OC1CC(N)C(O)C(C)O1 (stereo not given) + CN(C)c1ccc(Nc2c3ccc(NC(=O)CCN4CCCC4)cc3nc3cc(NC(=O)CCN4CCCC4)ccc23)cc1 stands at 6.43

For reference, reported pIC50 for C=CCn1c(=O)c2cnc(Nc3ccc(N4CCN(C)CC4)cc3)nc2n1-c1cccc(C(C)(C)O)n1 + CN(C)c1ccc(Nc2c3ccc(NC(=O)CCN4CCCC4)cc3nc3cc(NC(=O)CCN4CCCC4)ccc23)cc1 stands at 6.76

* * *

- Test system: 186277-243-T-J2-PDC complex spheroid viability
- test: Anticancer human tumor 186277-243-T-J2-PDC cell line growth inhibition [GQUAD];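 further: spheroids exposed to drugs for 7 days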;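 on viability, T/C: 100% = DMSO vehicle control viability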
- condition_parameters: second compound 0.316 µM; first compound 1 µM; stronger effect = lower value
measured_parameter: viability, T/C

molecule	viability, T/C
COc1cc(C2c3cc4c(cc3C(OC3OC5COC(C)OC5C(O)C3O)C3COC(=O)C23)OCO4)cc(OC)c1O (stereo not drawn) + Cc1[nH]c2ccc(F)cc2c1-c1nc2c3cccnc3c3ncccc3c2[nH]1	69.3%
C=CC(=O)N1CCN(c2nc(=O)n(-c3c(C)ccnc3C(C)C)c3nc(-c4c(O)cccc4F)c(F)cc23)C(C)C1 (stereo not drawn) + Cc1cnc(CNC(=O)c2c(=O)c3ccc(N4CCCN(C)CC4)nc3n3c2sc2ccccc23)cn1	75.3%

Below: the item to evaluate.
For reference, reported viability, T/C for CC(C)(O)C1CCC(Nc2ccc3ncc(-c4cccc(C(F)(F)F)c4)n3n2)CC1 (stereo not drawn) + Cc1cnc(CNC(=O)c2c(=O)c3ccc(N4CCCN(C)CC4)nc3n3c2sc2ccccc23)cn1 stands at 54.2%

* * *

- Tested on: 186277-243-T-J2-PDC complex spheroid viability
- test: Anticancer human tumor 186277-243-T-J2-PDC cell line growth inhibition [GQUAD];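 further: spheroids exposed to drugs for 7 days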
- condition_parameters: curve of first compound; second compound 1 µM
measured_parameter: IC50 (nM)
Report the value in nM with no unit label.

For reference, reported IC50 for O=C(NO)c1cnc(N2CCN(S(=O)(=O)c3ccc4ccccc4c3)CC2)nc1 + Cc1[nH]c2ccc(F)cc2c1-c1nc2c3cccnc3c3ncccc3c2[nH]1 stands at 190

For reference, reported IC50 for CC(C)n1c(=O)n(C)c2cnc3cc(F)c(-c4ccc(OCCCN5CCCCC5)nc4)cc3c21 + Cc1cnc(CNC(=O)c2c(=O)c3ccc(N4CCCN(C)CC4)nc3n3c2sc2ccccc23)cn1 stands at 144

* * *

Entries and their measured viability, T/C follow.
- Test system: 186277-243-T-J2-PDC complex spheroid viability
- test: Anticancer human tumor 186277-243-T-J2-PDC cell line growth inhibition [GQUAD];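 further: spheroids exposed to drugs for 7 days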;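 on viability, T/C: 100% = DMSO vehicle control viability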
- condition_parameters: second compound 10 µM; first compound 1 µM; stronger effect = lower value
Report the value in % with no unit label.

compound	viability, T/C [%]
C#Cc1c(F)ccc2cc(O)cc(-c3ncc4c(N5CC6CCC(C5)N6)nc(OCC56CCCN5CC(F)C6)nc4c3F)c12 (stereo not given) + CN(C)c1ccc(Nc2c3ccc(NC(=O)CCN4CCCC4)cc3nc3cc(NC(=O)CCN4CCCC4)ccc23)cc1	12.5
COc1cccc2c1C(=O)c1c(O)c3c(c(O)c1C2=O)CC(O)(C(=O)CO)CC3OC1CC(N)C(O)C(C)O1 (stereo not given) + Cc1[nH]c2ccc(F)cc2c1-c1nc2c3cccnc3c3ncccc3c2[nH]1	32.8

For reference, reported viability, T/C for COc1ccc([C@@H](O)c2cc(-c3ncnc4cc(N5CCOCC5)ccc34)c(F)cc2Cl)nn1 + CN(C)c1ccc(Nc2c3ccc(NC(=O)CCN4CCCC4)cc3nc3cc(NC(=O)CCN4CCCC4)ccc23)cc1 stands at 81.1

For reference, reported viability, T/C for CCCS(=O)(=O)Nc1ccc(F)c(C(=O)c2c[nH]c3ncc(-c4ccc(Cl)cc4)cc23)c1F + Cc1cnc(CNC(=O)c2c(=O)c3ccc(N4CCCN(C)CC4)nc3n3c2sc2ccccc23)cn1 stands at 40.4

For reference, reported viability, T/C for COc1ncnc(C2CC2)c1-c1ncc2cnn(Cc3ccc(-c4nc(C(F)(F)F)cn4C(C)C)cc3)c2n1 + Cc1cnc(CNC(=O)c2c(=O)c3ccc(N4CCCN(C)CC4)nc3n3c2sc2ccccc23)cn1 stands at 32.9

* * *

- System: 186277-243-T-J2-PDC complex spheroid viability
- test: Anticancer human tumor 186277-243-T-J2-PDC cell line growth inhibition [GQUAD]; active = viability on the fitted dose curve at most 10% of control; inactive = the rest;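 further: spheroids exposed to drugs for 7 days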
- condition_parameters: second compound 0.0316 µM; first compound 0.316 µM
In this exercise, the only acceptable responses are yes = active, no = inactive

See these solved cases before continuing.
molecule	label_value
CC1COCCN1c1cc(C2(O)CC3CCC(C2)O3)c2cnn(-c3ccn[nH]3)c2n1 (configuration not stated) + CN(C)c1ccc(Nc2c3ccc(NC(=O)CCN4CCCC4)cc3nc3cc(NC(=O)CCN4CCCC4)ccc23)cc1	yes
C#Cc1c(F)ccc2cc(O)cc(-c3ncc4c(N5CC6CCC(C5)N6)nc(OCC56CCCN5CC(F)C6)nc4c3F)c12 (configuration not stated) + Cc1[nH]c2ccc(F)cc2c1-c1nc2c3cccnc3c3ncccc3c2[nH]1	no

**Query** Assay result, entry C=CCn1c(=O)c2cnc(Nc3ccc(N4CCN(C)CC4)cc3)nc2n1-c1cccc(C(C)(C)O)n1 + Cc1[nH]c2ccc(F)cc2c1-c1nc2c3cccnc3c3ncccc3c2[nH]1 — outcome?
**Result** no

**Query** Assay result, entry CCc1c2c(nc3ccc(O)cc13)-c1cc3c(c(=O)n1C2)COC(=O)[C@]3(O)CC + Cc1cnc(CNC(=O)c2c(=O)c3ccc(N4CCCN(C)CC4)nc3n3c2sc2ccccc23)cn1 — outcome?
**Result** no

**Query** Assay result, entry Nc1ccn(C2OC(CO)C(O)C2(F)F)c(=O)n1 (configuration not stated) + CN(C)c1ccc(Nc2c3ccc(NC(=O)CCN4CCCC4)cc3nc3cc(NC(=O)CCN4CCCC4)ccc23)cc1 — outcome?
**Result** yes

**Query** Assay result, entry CC(C)(O)C1CCC(Nc2ccc3ncc(-c4cccc(C(F)(F)F)c4)n3n2)CC1 (configuration not stated) + CN(C)c1ccc(Nc2c3ccc(NC(=O)CCN4CCCC4)cc3nc3cc(NC(=O)CCN4CCCC4)ccc23)cc1 — outcome?
**Result** no

**Query** Assay result, entry CCCS(=O)(=O)Nc1ccc(F)c(C(=O)c2c[nH]c3ncc(-c4ccc(Cl)cc4)cc23)c1F + Cc1cnc(CNC(=O)c2c(=O)c3ccc(N4CCCN(C)CC4)nc3n3c2sc2ccccc23)cn1 — outcome?
**Result** no
